test system: white spot syndrome virus (WSSV); experiment: Anti-WSSV activity in shrimp larvae, co-incubation, copy number of viral genome by RT-qPCR; format: in vivo, Litopenaeus vannamei; details: Whispovirus xiabaidian, 72 h, WSSV-infected larvae, copy number of viral genome, 72 h; 95% CI in brackets; read-out: EC50 (mg/L; 95% CI), median effective concentration
parameter: EC50

Guide cases for EC50, answers given:
                                   compound  parameter  measured_value
0  O=C1Nc2c(c(=O)oc3ccccc23)C(c2ccc(F)cc2)N1 (stereo not drawn)       EC50       < 10 mg/L
1  O=C1Nc2c(c(=O)oc3ccccc23)C(c2ccccc2)N1 (stereo not drawn)       EC50       21.5 mg/L
2  N#CC1=C(N)Oc2c(c(=O)oc3ccccc23)C1c1ccc(O)cc1 (stereo not drawn)       EC50       61.2 mg/L
3  COc1ccc(C2NC(=S)Nc3c2c(=O)oc2ccccc32)cc1 (stereo not drawn)       EC50       25.6 mg/L
4  COc1ccc(C2NC(=O)Nc3c2c(=O)oc2ccccc32)cc1 (stereo not drawn)       EC50       14.9 mg/L

Kindly consider the entry below.
# input I have this compound here, Cc1ccc(C2NC(=O)Nc3c2c(=O)oc2ccccc32)cc1 (stereo not drawn) , and I need its recorded EC50.
# output < 10 mg/L

Each recorded value in this set is attributed to paper PMC8036603.
